Data origin, for the record: the supplement of paper PMC9170038

Catalogue of apparent KD of MS2 coat protein values
# Test system: MS2 coat protein
# ASSAY_INFO: apparent KD of MS2 coat protein, switch OFF state (with FMN for OFF switches, without FMN for ON switches); designed switch direction (-1 OFF switch, 1 ON switch): -1; higher = weaker reporter binding
# ASSAY_SETUP: FMN input: 0 or 200 uM; Eterna round: R93 (includes R88 designs)

# RESIDUE_CODES, apparent KD of MS2 coat protein, nM
measured = [
    ("GGAAAGCGAGGAUAUACAUGAGGAUCACCCAUGUAAAAGAAAAGAAAAGAAAGAAAAUGUAGAAGGCGCAAAAA [Exclusion 3 plus]", 54.4),
    ("UAAAGGAUAGGAUAUACAUGAGGAUCACCCAUGUGAAUAAAUAAGAAAAUAAAAGAAAGUAGAAGGAUCAAGAA [LROPPY Exclusion 3 - v04_deltaG=3.9 break up As mixed]", 29.6),
    ("AAGAAUGCAGGAUAUACAUGAGGAUCACCCAUGUAAAAGAAAGAGGGAAAAGAGAAAAGUAGAAGGGCAAAGAA [Cleopatra III]", 37.6),
    ("AAAAAUGGAGGAUAUACAUGAGGAUCACCCAUGUUAGACCUAAAAAAAGGGAAAGAAAGUAGAAGGCCAUAAAA [Ex 3 May 29]", 20.6),
    ("AGCUAGUCAGGAUAUACGAACAUGUCAGGAGACGUGAAGGGACAUGAGGAUCACCCAUGUAGAAGGGACUAGCG [74%, Web mod - With 3 more G's]", 128),
    ("AAAAAGUGAGGAUAUACAUGAGGAUCACCCAUGUGAAGGGAAGAGAGAGAGAGAGAGAGUAGAAGGCACAAAAA [Default title]", 96.3),
]
